Target: HLA-B*15:17
Test: IEDB peptide-MHC binding, purified MHC/direct/fluorescence; filed as Kd, often an IC50 or EC50 that approximates it; bounds were set here for any values at or beyond the usual limits of such assays
Conditions: source organism: Campylobacter jejuni RM1221
pKd: −log10 of the molar value.

| chain | pKd |
| --- | --- |
| VQKVNPAPK | ≤ 4.70 |
| AKYEICLEK | ≤ 4.70 |

----------
Biological target: HLA-B*58:01
Assay: IEDB peptide-MHC binding, purified MHC/direct/fluorescence; filed as Kd, often an IC50 or EC50 that approximates it; bounds were set here for any values at or beyond the usual limits of such assays
Conditions: source organism: Camelpox virus M-96

| chain | Kd, nM |
| --- | --- |
| KLIEGTNIW | 7.7 |

----------
// reported pKd per item
Target: HLA-B*07:02
Experiment: IEDB peptide-MHC binding, purified MHC/direct/fluorescence; filed as Kd, often an IC50 or EC50 that approximates it; bounds were set here for any values at or beyond the usual limits of such assays
Settings: source organism: Marburg virus - Musoke, Kenya, 1980
pKd: −log10 of the molar value.

| chain | pKd |
| --- | --- |
| VPAWLPLGI | 6.14 |
| TVLEFILQK | ≤ 4.70 |
| IISTNTLGK | ≤ 4.70 |

----------
Target: HLA-A*31:01
Experiment: IEDB peptide-MHC binding, purified MHC/competitive/radioactivity; filed as Kd, often an IC50 or EC50 that approximates it; bounds were set here for any values at or beyond the usual limits of such assays
Conditions: source organism: Dengue virus 4 Thailand/0348/1991
parameter.measured: Kd (nM)

| chain | parameter.measured | measurement.unit | experimental.value |
| --- | --- | --- | --- |
| TVMAFHLSTR | Kd | nM | 5.92 |

----------
Target: HLA-A*69:01
Assay: IEDB peptide-MHC binding, purified MHC/competitive/fluorescence; filed as Kd, often an IC50 or EC50 that approximates it; bounds were set here for any values at or beyond the usual limits of such assays
Conditions: source organism: Campylobacter jejuni subsp. jejuni NCTC 11168 = ATCC 700819

| chain | Kd |
| --- | --- |
| KGMKIQHFK | ≥ 20 µM |

----------
Biological target: HLA-A*02:19
Experiment: IEDB peptide-MHC binding, purified MHC/competitive/fluorescence; filed as Kd, often an IC50 or EC50 that approximates it; bounds were set here for any values at or beyond the usual limits of such assays
Conditions: source organism: Vibrio parahaemolyticus RIMD 2210633

| chain | Kd |
| --- | --- |
| HVIYFTAFT | ≥ 20 µM |

----------
Target: HLA-A*02:01
Experiment: IEDB peptide-MHC binding, purified MHC/competitive/radioactivity; filed as Kd, often an IC50 or EC50 that approximates it; bounds were set here for any values at or beyond the usual limits of such assays
Conditions: source organism: Trypanosoma cruzi
parameter.measured: Kd

| chain | target.entity | experimental.value |
| --- | --- | --- |
| DTMRPTTVV | HLA-A*02:01 | ≥ 83.3 µM |

----------
Biological target: HLA-B*15:42
Assay: IEDB peptide-MHC binding, purified MHC/competitive/fluorescence; filed as Kd, often an IC50 or EC50 that approximates it; bounds were set here for any values at or beyond the usual limits of such assays
Conditions: source organism: Rickettsia typhi str. Wilmington

| chain | Kd |
| --- | --- |
| LTIPTIMGR | ≥ 5 µM |

----------
Target: HLA-B*15:09
Test: IEDB peptide-MHC binding, purified MHC/competitive/fluorescence; filed as Kd, often an IC50 or EC50 that approximates it; bounds were set here for any values at or beyond the usual limits of such assays
Conditions: source organism: Bacillus anthracis str. A0389
parameter.measured: Kd

| chain | target.entity | experimental.value |
| --- | --- | --- |
| FTDNNELEF | HLA-B*15:09 | ≥ 20 µM |

----------
Target: HLA-A*03:01
Test: IEDB peptide-MHC binding, purified MHC/direct/fluorescence; filed as Kd, often an IC50 or EC50 that approximates it; bounds were set here for any values at or beyond the usual limits of such assays
Conditions: source organism: Vibrio cholerae
pKd: −log10 of the molar value.
parameter.measured: pKd

| chain | parameter.measured | qualifier.symbol | experimental.value |
| --- | --- | --- | --- |
| WAGIWGGKL | pKd | ≤ | 4.70 |
| ALYWALMES | pKd | ≤ | 4.70 |
| VVYKEAKIK | pKd | = | 6.51 |
| TLNRCALLR | pKd | = | 5.65 |

----------
Target: HLA-A*31:01
Experiment: IEDB peptide-MHC binding, purified MHC/direct/fluorescence; filed as Kd, often an IC50 or EC50 that approximates it; bounds were set here for any values at or beyond the usual limits of such assays
Details: source organism: Ebola virus - Gabon (1994-1997)
parameter.measured: Kd

| chain | parameter.measured | experimental.value |
| --- | --- | --- |
| YFTFDLTAL | Kd | ≥ 20 µM |

----------
Biological target: HLA-A*68:01
Assay: IEDB peptide-MHC binding, purified MHC/competitive/radioactivity; filed as Kd, often an IC50 or EC50 that approximates it; bounds were set here for any values at or beyond the usual limits of such assays
Settings: source organism: Mammarenavirus juninense
pKd: −log10 of the molar value.

| chain | pKd |
| --- | --- |
| RNPYENLLYK | 4.90 |

----------
Target: HLA-A*02:19
Assay: IEDB peptide-MHC binding, purified MHC/direct/fluorescence; filed as Kd, often an IC50 or EC50 that approximates it; bounds were set here for any values at or beyond the usual limits of such assays
Conditions: source organism: Rickettsia bellii OSU 85-389
pKd: −log10 of the molar value.

| chain | pKd |
| --- | --- |
| EDFEIFYNL | ≤ 4.70 |

----------
Reported pKd values for a set of sequences
Biological target: HLA-A*03:01
Experiment: IEDB peptide-MHC binding, purified MHC/direct/fluorescence; filed as Kd, often an IC50 or EC50 that approximates it; bounds were set here for any values at or beyond the usual limits of such assays
Conditions: source organism: Zaire ebolavirus
pKd: −log10 of the molar value.

| chain | pKd |
| --- | --- |
| LTDRELLLL | ≤ 4.70 |
| WLQKIPLQW | ≤ 4.70 |

----------
Target: HLA-B*15:01
Assay: IEDB peptide-MHC binding, purified MHC/direct/fluorescence; filed as Kd, often an IC50 or EC50 that approximates it; bounds were set here for any values at or beyond the usual limits of such assays
Settings: source organism: Influenza A virus (A/eka/Thailand/EkA1NRC/2004(H5N1))
pKd: −log10 of the molar value.

| chain | pKd |
| --- | --- |
| GVKGFSFKY | ≤ 4.70 |

----------
Target: HLA-B*53:01
Assay: IEDB peptide-MHC binding, purified MHC/competitive/radioactivity; filed as Kd, often an IC50 or EC50 that approximates it; bounds were set here for any values at or beyond the usual limits of such assays
Settings: source organism: Vaccinia virus WR
pKd: −log10 of the molar value.
Each entry below lists one item and its recorded pKd value.
parameter.measured: pKd

| chain | qualifier.symbol | experimental.value |
| --- | --- | --- |
| KPYTAGNKV | ≤ | 4.11 |
| VPHSVFIASA | ≤ | 4.16 |
| VLPHLCLDYK | ≤ | 4.16 |
| SPETQQMII | = | 7.94 |
| LPFYETLPEL | = | 7.24 |
| NPTKYIRWKL | = | 5.69 |

----------
Target: HLA-B*27:05
Assay: IEDB peptide-MHC binding, purified MHC/direct/fluorescence; filed as Kd, often an IC50 or EC50 that approximates it; bounds were set here for any values at or beyond the usual limits of such assays
Conditions: source organism: Neisseria gonorrhoeae
parameter.measured: Kd

| chain | target.entity | experimental.value |
| --- | --- | --- |
| GSDKQVVGQ | HLA-B*27:05 | ≥ 20 µM |

----------
Molecular target: HLA-A*24:02
Assay: IEDB peptide-MHC binding, purified MHC/competitive/radioactivity; filed as Kd, often an IC50 or EC50 that approximates it; bounds were set here for any values at or beyond the usual limits of such assays
Details: source organism: Mammarenavirus machupoense
pKd: −log10 of the molar value.

| chain | target.entity | pKd |
| --- | --- | --- |
| RAEVSLHEV | HLA-A*24:02 | ≤ 4.11 |

----------
Target: HLA-A*02:03
Assay: IEDB peptide-MHC binding, purified MHC/competitive/radioactivity; filed as Kd, often an IC50 or EC50 that approximates it; bounds were set here for any values at or beyond the usual limits of such assays
Conditions: source organism: Lymphocytic choriomeningitis virus (strain Armstrong)

| chain | measurement.unit | Kd |
| --- | --- | --- |
| SNSEDLLKAV | µM | 15.2 |
